Experimental details: NCI Yeast Anticancer Drug Screen. Data for the mlh1 rad18 strain (AID 175)
Test context: S. cerevisiae mlh1 rad18 strain growth inhibition; at 50.0 µM
This is part of a sample that, as a whole, favours compounds with a hit. Of some 79,000 tested, about 15% had one in any assay. Active and inactive are the calls of the source. No stated cut-off is given here; in the data, active means growth inhibition above about 70%; inactive means the rest.
Outcome codes: yes (1) for active, no (0) for inactive

Molecule | Classification
O=C(Oc1ccccc1Cl)C1=C(C(=O)Oc2ccccc2Cl)CCC1 | no (0)
CCOC(=O)c1c(NC(=O)CCl)ssc1=S | no (0)
O=C1C(=O)c2ccccc2C(O)=C1CCCc1ccc(S(=O)(=O)c2ccccc2)cc1 | no (0)
C1CC2N=NC1C21CC1.[Cl][Cu][Cl] | no (0)
Cc1ccc(CSC(=S)NNc2ccccc2)cc1C | no (0)
CC1=C(C(=O)Nc2ccccc2)C(c2ccc(C3C(C(=O)Nc4ccccc4)=C(C)NC(C)=C3C(=O)Nc3ccccc3)cc2)C(C(=O)Nc2ccccc2)=C(C)N1 | yes (1)
CC(C)CCCC(C)C1CCC2C3CC=C4CC(P(=O)(c5ccccc5)c5ccccc5)CCC4(C)C3CCC12C (centres undefined) | no (0)
COC(CN1C=C(Sc2ccccc2)CC1)OC | no (0)
C=C(C)C(=O)Nc1ccc2nn(-c3ccccc3O)nc2c1 | no (0)
CCc1cc2ccccc2oc1=O | no (0)
C#Cc1cccc(N=Cc2cc(Cl)cc(C)c2O)c1 | no (0)
Cc1c(O)c2ccc3ccccc3c2oc1=O | no (0)
CCOC(=O)C(CCN(C)C)C(=O)OCC | no (0)
CCCCc1ccc2nc3cc4ccccc4cc3nc2c1 | no (0)
CC(=O)Nc1cccc2c1C(=O)c1c(c(O)c3ccccc3c1O)C2=O | no (0)
CN1c2ccc(C3N(C(=O)C(F)(F)F)C=CN3C(=O)C(F)(F)F)cc2Sc2cc(C3N(C(=O)C(F)(F)F)C=CN3C(=O)C(F)(F)F)ccc21 | no (0)
CCOC(=O)/C=C/C(=O)O.[Cu+2] | no (0)
CCOC(=O)C(=CNc1ccc(N(CC)CC)cc1)C(=O)OCC | no (0)
COc1ccc(/C(C#N)=C\c2ccc(N(C)C)cc2)cc1 | no (0)
CC(C)=CCC/C(C)=C/CN | no (0)
Cc1ccc(=O)n(Cc2ccccc2)n1 | no (0)
CCCCC(=O)N/N=C/c1ccccc1OCC | no (0)
CCCCC(O)(CCCC)CC(C)C | no (0)
CC(=C\C=N\N(C)c1ccccc1)/C=C1\Cc2ccccc2C1=O | no (0)
